As shown below, each of these compounds has a reported composite z-score value.
test system: Wnt5a (protein binding on small-molecule microarray); test: small molecules binding Wnt5a protein – biophysical, small-molecule microarray, 635/667 nm fluorescence, primary screen (AID 1142); details: 635 nm fluorescence, higher = more signal;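 also: fluorescence read at 667 nm with signal to noise per printed feature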

Would you please look over these solved cases?
# COMPOUND, composite z-score
data = [
    ("COC(=O)NCC=Cc1nc(CCC=CC(=O)O[C@H]2CC3CC(=O)O[C@@H](C=CCC(C)C)C[C@@H]4CC[C@H](C)[C@@H](C[C@@H](OC)C[C@H](C2)O3)O4)co1", -0.335),
    ("COC(=O)[C@H]1[C@H](c2ccccc2)C(=O)[C@]2(O)c3ccccc3O[C@@]12c1ccccc1", 0.129),
    ("CCCc1cc2c(n1Cc1cccc(Cl)c1)C(C)C1CN(C(=O)c3ccccc3)C(C)(C(=O)OC)C21 (stereo not given)", 0.318),
    ("COC(=O)C1(C)C=C2C(=C(C)C(=O)C2C)CN1 (stereo not given)", -0.163),
    ("COC(=O)[C@@]1(Cc2ccccc2)[C@H]2c3cc(C(=O)N(C)C)n(C)c3C[C@H]2CN1C(=O)c1ccccc1", 0.253),
    ("OCc1ccc(C2=CC(c3cccs3)N(Cc3cccc(OC(F)(F)F)c3)CC2)cc1 (stereo not given)", 0.136),
    ("CN1CCc2nc(CO)c(CO)cc2C1", 0.233),
    ("CCCc1cc2c(n1Cc1ccc(C)cc1)C(C)C1CN(C(=O)c3ccccc3)C(C)(C(=O)OC)C21 (stereo not given)", 0.667),
    ("COC(=O)[C@H]1C(=O)c2ccccc2O[C@@](C(=O)OC)(c2ccccc2)[C@@H]1c1ccccc1", 0.107),
    ("C[C@H]1O[C@H]2C3=C(C(=O)[C@@H]4O[C@@H]4[C@@H]3O)[C@@H]1[C@@H]1[C@@H](C)OC=C3[C@@H](O)[C@H]4O[C@H]4C(=O)[C@]312", -0.176),
]

Entry CN1CCC(c2ccc(CO)cc2)=CC1c1cccs1 (stereo not given) : reported composite z-score = ?
-0.113

Moving on to the next compound: CCCC[C@@H]1C[C@H]1[C@@H](NP(=O)(c1ccccc1)c1ccccc1)c1ccc(Cl)cc1
0.0234

Moving on to the next compound: CCCc1cc2c(n1Cc1ccco1)C(C)C1CN(C(=O)c3ccccc3)C(C)(C(=O)OC)C21 (stereo not given)
0.326

Moving on to the next compound: CCCc1cc2c(n1CCO)C(C)C1CN(C(=O)c3ccccc3)C(C)(C(=O)OC)C21 (stereo not given)
0.559

Moving on to the next compound: C=C(CC1(C(C)NP(=O)(c2ccccc2)c2ccccc2)CC1)c1ccccc1 (stereo not given)
0.41
